# Tested system: recombinant human OX40 (Acro Biosystems, cat. no. OXO-H5224) (human) (UniProt P43489)
# Sequence (P43489 29-216 limits assumed): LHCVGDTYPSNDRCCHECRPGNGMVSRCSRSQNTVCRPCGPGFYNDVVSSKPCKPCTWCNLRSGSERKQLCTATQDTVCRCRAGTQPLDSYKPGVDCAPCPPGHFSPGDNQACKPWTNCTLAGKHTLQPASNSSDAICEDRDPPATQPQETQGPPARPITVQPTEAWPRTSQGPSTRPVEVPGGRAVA
# Experiment: BLI, Ab on AHC sensor, OX40 analyte
Quantity: kon (M⁻¹ s⁻¹)
The response must be a number in M⁻¹ s⁻¹ with no trailing unit.

Example binders with recorded kon:
Binder	kon [M⁻¹ s⁻¹]
IgG1-CD134-ABBV368 (antibody, INN chains, looked up, V domains shown, IgG1) VH: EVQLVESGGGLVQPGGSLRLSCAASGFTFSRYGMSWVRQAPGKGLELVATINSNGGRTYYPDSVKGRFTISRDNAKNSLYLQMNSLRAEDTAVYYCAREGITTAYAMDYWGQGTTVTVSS VL: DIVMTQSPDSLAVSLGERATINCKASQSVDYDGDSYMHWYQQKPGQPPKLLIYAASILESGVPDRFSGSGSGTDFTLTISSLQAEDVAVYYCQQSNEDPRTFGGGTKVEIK	510000
IgG1-CD134-RG7888 (antibody, INN chains, looked up, V domains shown, IgG1) VH: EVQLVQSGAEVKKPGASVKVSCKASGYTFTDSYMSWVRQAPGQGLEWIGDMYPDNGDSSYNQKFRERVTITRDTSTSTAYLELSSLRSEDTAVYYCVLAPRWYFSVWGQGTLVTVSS VL: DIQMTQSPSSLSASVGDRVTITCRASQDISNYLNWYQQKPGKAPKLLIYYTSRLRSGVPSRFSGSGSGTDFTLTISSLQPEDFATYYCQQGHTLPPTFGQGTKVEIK	360000
IgG1-CD134-MEDI0562 (antibody, INN chains, looked up, V domains shown, IgG1) VH: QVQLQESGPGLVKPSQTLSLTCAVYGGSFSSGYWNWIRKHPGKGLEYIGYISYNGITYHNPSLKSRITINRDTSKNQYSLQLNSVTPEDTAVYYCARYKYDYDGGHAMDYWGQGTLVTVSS VL: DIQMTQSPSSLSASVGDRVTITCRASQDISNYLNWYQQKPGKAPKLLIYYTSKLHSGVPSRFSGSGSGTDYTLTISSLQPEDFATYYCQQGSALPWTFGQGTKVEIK	150000

Consider the additional binder presented here.
query: Reported kon, binder IgG1-CD134-GBR830 (antibody, INN chains, looked up, V domains shown, IgG1) VH: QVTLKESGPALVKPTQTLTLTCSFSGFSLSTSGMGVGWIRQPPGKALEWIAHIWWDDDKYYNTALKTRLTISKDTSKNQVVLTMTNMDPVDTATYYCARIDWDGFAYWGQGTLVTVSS VL: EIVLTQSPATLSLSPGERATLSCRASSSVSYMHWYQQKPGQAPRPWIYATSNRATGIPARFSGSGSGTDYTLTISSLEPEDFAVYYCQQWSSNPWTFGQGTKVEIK : ____
result: 120000
